Hello, the source for this data is patent US11400019B2, in case you need it.

assay: Example 17 trial: plasma total bupivacaine pharmacokinetics; format: in vivo; conditions: human, Cohort 2
Structures can show the parent of a compound that is named as a salt.
parameterMeasured: Cmax (ng/mL)
The figure you give is taken to be in ng/mL; do not add the unit.

# get_value(readout='Cmax', item= CCCCN1CCCCC1C(=O)Nc1c(C)cccc1C (stereo not shown) [bupivacaine HCl, bupivacaine hydrochloride] )
371

###

assay: Example 17 trial: plasma total bupivacaine pharmacokinetics; assay type: in vivo; conditions: human, Cohort 1, read-out: AUC(0-last), mean
Counter-ions that a name gives are not always drawn.
parameterMeasured: AUC(0-t) (ng·h/mL)
Kindly answer with a numeric value in ng·h/mL, unit omitted.

Look at this compound and give its reported AUC(0-t). CCCCN1CCCCC1C(=O)Nc1c(C)cccc1C (stereo not shown) [bupivacaine HCl, bupivacaine hydrochloride]
7780

###

assay: Example 17 trial: plasma total bupivacaine pharmacokinetics; assay type: in vivo; settings: human, Cohort 2, read-out: AUC(0-72), mean
Structures can show the parent of a compound that is named as a salt.
parameterMeasured: AUC(0-t) (ng·h/mL)
The reply should be a number in ng·h/mL, with the unit left off.

So what does the record say about AUC(0-t) for CCCCN1CCCCC1C(=O)Nc1c(C)cccc1C (stereo not shown) [bupivacaine HCl, bupivacaine hydrochloride] ?
6770

###

assay: Example 17 trial: plasma total bupivacaine pharmacokinetics; format: in vivo; conditions: human, Cohort 2, read-out: AUC(0-last), mean
Structures can show the parent of a compound that is named as a salt.
parameterMeasured: AUC(0-t) (ng·h/mL)
Write down the numeric answer in ng·h/mL and omit the unit.

Entry CCCCN1CCCCC1C(=O)Nc1c(C)cccc1C (stereo not shown) [bupivacaine HCl, bupivacaine hydrochloride] : reported AUC(0-t) = ?
6620

###

assay: Example 17 trial: plasma total bupivacaine pharmacokinetics; assay type: in vivo; conditions: human, Cohort 1, read-out: Tmax, median
Structures can show the parent of a compound that is named as a salt.
parameterMeasured: Tmax (h)
Express your answer in h, writing the number without its unit.

Consider the compound CCCCN1CCCCC1C(=O)Nc1c(C)cccc1C (stereo not shown) [bupivacaine HCl, bupivacaine hydrochloride] and give its measured Tmax.
16

###

assay: Example 17 trial: plasma total bupivacaine pharmacokinetics; assay type: in vivo; details: human, Cohort 1, read-out: AUC(0-72), mean
Where a name gives a salt, the structure may show the parent alone.
parameterMeasured: AUC(0-t) (µg·h/mL)
# value in µg·h/mL; strip the unit string

I would be grateful if you could share the reported AUC(0-t) for CCCCN1CCCCC1C(=O)Nc1c(C)cccc1C (stereo not shown) [bupivacaine HCl, bupivacaine hydrochloride] .
8.46

###

test: Example 17 trial: plasma total bupivacaine pharmacokinetics; assay type: in vivo; conditions: human, Cohort 2, read-out: Tmax, median
Counter-ions that a name gives are not always drawn.
parameterMeasured: Tmax (h)
Kindly answer with a numeric value in h, unit omitted.

Fill blank: measured Tmax of the molecule CCCCN1CCCCC1C(=O)Nc1c(C)cccc1C (stereo not shown) [bupivacaine HCl, bupivacaine hydrochloride] is ____.
1
